Tested on: HepG2
Protocol: Antiproliferative activity against human HepG2 cells after 24 to 96 hrs by MTS assay
Assay type: functional, cell-based
pIC50: −log10 of the molar value.

Test Smiles	pIC50
Cc1ccc(NC(=O)c2ccc(CN3CCN(C)CC3)cc2)cc1Nc1nccc(-c2cccnc2)n1	5.00

----------
Protocol: Cytotoxicity against human QSG7701 cells assessed as growth inhibition at 100 uM after 48 hrs by MTT assay relative to control
Format: cell-based
Condition Summary: read-out: GI
Parameter: inhibition at 48 h, 100 µM (%)

Test Smiles	Assay Value
O=C(Cc1cccc2ccccc12)NCCNC(=O)C1(NC(=O)CCc2cccc(O)c2)CCN(Cc2ccccc2)CC1	90.9
O=C(Cc1ccc(F)cc1)NCCNC(=O)C1(NC(=O)c2cccs2)CCN(Cc2ccccc2)CC1	32.5
O=C(Cc1cccc2ccccc12)NCCNC(=O)C1(NC(=O)c2ccc(C(F)(F)F)nc2)CCCC1	32.4
O=C(NCCNS(=O)(=O)c1cccc2cnccc12)C1CCCC1	30.6
O=C(Cc1cccc2ccccc12)NCCNC(=O)C1(NC(=O)c2ccc(C(F)(F)F)nc2)CCNCC1	11.8
O=C(Cc1cccc2ccccc12)NCCNC(=O)C1(NC(=O)c2ccc(C(F)(F)F)nc2)CCN(Cc2ccccc2)CC1	93.2
COc1ccc(CC(=O)NCCNC(=O)C2(NC(=O)c3ccc(C(F)(F)F)nc3)CCN(Cc3ccccc3)CC2)cc1OC	19.5
O=C(Cc1cccc2ccccc12)NCCNC(=O)C1(NC(=O)c2cccs2)CCN(Cc2ccccc2)CC1	89.8
CCc1ccc(C(=O)NC2(C(=O)NCCNC(=O)Cc3cccc4ccccc34)CCN(Cc3ccccc3)CC2)cc1	92.1
O=C(NCCNS(=O)(=O)c1cccc2cnccc12)c1cccc(O)c1	10.9
